All values here come from patent US10131652B2.

# System: Italian ryegrass (Lolium multiflorum)
# experimentSummary: Test B pre-/postemergence plant response
# Type: in vivo
# conditionNotes: Preemergence, 125 g ai/ha; 0 to 100 scale (0 no effect, 100 complete control)

# smilesData, Ryegrass, Italian plant response rating
rows = [
    ("Cc1ccnc(-c2ccccc2Oc2ncc(Cl)cn2)c1", 0),
    ("Fc1ccc(Oc2ncc(Cl)cn2)c(-c2cc(C(F)(Cl)Cl)on2)c1", 40),
    ("Clc1cnc(Oc2ccccc2-c2cc(Cl)ccn2)nc1", 0),
    ("Fc1cccc(Oc2ncc(Br)cn2)c1-c1cc(C(F)F)no1", 40),
    ("Cc1cc(-c2ccccc2Oc2ncc(Cl)cn2)no1", 0),
    ("Cc1cnc(Oc2ccccc2-c2cc(C(C)(F)F)on2)nc1", 20),
    ("N#Cc1cc(-c2c(F)cccc2Oc2ncc(Cl)cn2)no1", 0),
    ("Cc1csc(-c2ccccc2Oc2ncc(Cl)cn2)c1", 0),
    ("FC(F)(F)Cn1cnc(-c2ccccc2Oc2ncc(Cl)cn2)c1", 0),
    ("Clc1cnc(Oc2ccccc2-c2ccsc2)nc1", 0),
    ("Clc1cnc(Oc2ccccc2-c2cccs2)nc1", 0),
    ("FC(F)(F)c1ccnc(-c2c(Cl)cccc2Oc2ncc(Cl)cn2)c1", 0),
    ("Fc1cccc(Oc2ncc(Cl)cn2)c1-c1cc(C2CC2)on1", 50),
    ("CCOC(=O)c1cc(-c2ccccc2Oc2ncc(Cl)cn2)on1", 0),
    ("FC(Cl)(Cl)c1cc(-c2ccccc2Oc2ncc(Cl)cn2)no1", 20),
    ("Cc1csc(-c2c(C#N)cccc2Oc2ncc(Cl)cn2)c1", 0),
    ("CC(F)(F)c1cc(-c2ccccc2Oc2ncc(Br)cn2)no1", 10),
    ("FC(F)(F)c1cc(-c2c(Br)cccc2Oc2ncc(Cl)cn2)no1", 0),
    ("FC(F)Oc1cccc(Oc2ncc(Cl)cn2)c1-c1cc(C(F)F)on1", 90),
    ("Brc1cnc(Oc2ccccc2-c2ccno2)nc1", 0),
]

---

# Test system: corn (Zea mays)
# experimentSummary: Test B pre-/postemergence plant response
# Assay type: in vivo
# conditionNotes: Zea mays, post-emergence, 240 h; 125 g ai/ha, postemergence; 0 to 100 scale, 0 no effect, 100 complete control
The entries below come with measured Corn plant response rating (crop injury, 0 = no effect, 100 = complete kill) at 125 g/ha values attached.
propertyLabel: Corn plant response rating (crop injury, 0 = no effect, 100 = complete kill) at 125 g/ha (%)

# smilesData, measuredTarget, experimentalValue
rows = [
    ("FC(F)(F)c1cnc(Oc2ccccc2-c2cnc(Br)s2)nc1", "corn (Zea mays)", 0),
    ("FC(F)(F)c1nccc(-c2ccccc2Oc2ncc(Br)cn2)n1", "corn (Zea mays)", 0),
    ("N#Cc1cccc(Oc2ncc(Cl)cn2)c1-c1cc(C(F)(F)F)ccn1", "corn (Zea mays)", 30),
    ("Fc1cccc(Oc2ncc(Br)cn2)c1-c1cc(C(F)F)no1", "corn (Zea mays)", 70),
    ("FCc1cc(-c2ccccc2Oc2ncc(Cl)cn2)no1", "corn (Zea mays)", 10),
]

---

The entries below come with measured Wheat plant response rating values attached.
# Tested on: winter wheat (Triticum aestivum)
# experimentSummary: Test D pre-/postemergence plant response
# Assay type: in vivo
# conditionNotes: Postemergence, 31 g ai/ha; scale 0 to 100 (0 no effect, 100 complete control)

# compound, measuredTarget, Wheat plant response rating
records = [
    ("Clc1cnc(Oc2ccccc2-c2ccon2)nc1 [Compound 185]", "winter wheat (Triticum aestivum)", 0),
    ("FCc1cc(-c2c(Br)cccc2Oc2ncc(Cl)cn2)no1 [Compound 191]", "winter wheat (Triticum aestivum)", 0),
    ("N#Cc1cccc(Oc2ncc(Cl)cn2)c1-c1cc(C(F)F)on1 [Compound 180]", "winter wheat (Triticum aestivum)", 5),
    ("FC(F)(Cl)c1cc(-c2ccccc2Oc2ncc(Cl)cn2)no1 [Compound 143]", "winter wheat (Triticum aestivum)", 5),
    ("Cc1cc(-c2ccccc2Oc2ncc(Cl)cn2)no1 [Compound 60]", "winter wheat (Triticum aestivum)", 5),
]

---

# System: barnyardgrass (Echinochloa crus-galli)
# experimentSummary: Test C flooded paddy test plant response
# Format: in vivo
# conditionNotes: Flood, 250 g ai/ha; scale of 0 to 100 where 0 is no effect and 100 is complete control; 13 to 15 days
# Description: Plant species in the flooded paddy test selected from rice (Oryza sativa), small-flower umbrella sedge (Cyperus difformis), ducksalad (Heteranthera limosa), and bamyardgrass (Echinochloa crus-galli) were grown to the 2-leaf stage for testing. […] Treated plants and controls were maintained in a greenhouse for 13 to 15 days, after which time all species were compared to controls and visually evaluated. […]
The entries below come with measured Barnyardgrass plant response rating values attached.

# smilesData, measuredTarget, Barnyardgrass plant response rating
rows = [
    ("COc1cccc(Oc2ncc(Cl)cn2)c1-c1cc(C(F)F)on1", "barnyardgrass (Echinochloa crus-galli)", 30),
    ("FC(F)(F)c1ccnc(-c2ccccc2Oc2ncc(Br)cn2)c1", "barnyardgrass (Echinochloa crus-galli)", 0),
    ("Fc1cccc(Oc2ncc(Cl)cn2)c1-c1cccc(OC(F)(F)F)c1", "barnyardgrass (Echinochloa crus-galli)", 20),
    ("FC(F)(Cl)c1cc(-c2ccccc2Oc2ncc(Cl)cn2)no1", "barnyardgrass (Echinochloa crus-galli)", 30),
    ("Brc1cnc(Oc2ccccc2-c2ccsc2)nc1", "barnyardgrass (Echinochloa crus-galli)", 0),
    ("Clc1ccc(-c2c(I)cccc2Oc2ncc(Cl)cn2)nc1", "barnyardgrass (Echinochloa crus-galli)", 0),
    ("Clc1cnc(Oc2ccccc2-c2ccno2)nc1", "barnyardgrass (Echinochloa crus-galli)", 0),
    ("Cn1ncnc1-c1ccccc1Oc1ncc(Cl)cn1", "barnyardgrass (Echinochloa crus-galli)", 0),
    ("Cc1cnc(Oc2ccccc2-c2cc(C(F)F)no2)nc1", "barnyardgrass (Echinochloa crus-galli)", 0),
    ("Cn1nnnc1-c1ccccc1Oc1ncc(Cl)cn1", "barnyardgrass (Echinochloa crus-galli)", 0),
]

---

# Tested on: yellow nutsedge (Cyperus esculentus)
# experimentSummary: Test D pre-/postemergence plant response
# Type: in vivo
# conditionNotes: Postemergence, 31 g ai/ha; scale 0 to 100 (0 no effect, 100 complete control)

# compound, Nutsedge, Yellow plant response rating
measured = [
    ("FC(F)(F)c1cc(-c2c(Cl)cccc2Oc2ncc(Cl)cn2)no1 [Compound 169]", 0),
    ("FC(F)Oc1cccc(Oc2ncc(Cl)cn2)c1-c1cc(C(F)F)on1 [Compound 131]", 0),
    ("FC(F)c1cc(-c2ccccc2Oc2ncc(Br)cn2)on1 [Compound 212]", 5),
    ("FC(Cl)c1cc(-c2ccccc2Oc2ncc(Cl)cn2)no1 (stereo not shown) [Compound 116]", 5),
    ("FC(F)c1cc(-c2c(Cl)cccc2Oc2ncc(Cl)cn2)on1 [Compound 120]", 10),
    ("Fc1cccc(Oc2ncc(Br)cn2)c1-c1cc(C(F)F)on1 [Compound 118]", 5),
    ("FC(Cl)(Cl)c1cc(-c2ccccc2Oc2ncc(Cl)cn2)no1 [Compound 198]", 5),
]

---

The entries below come with measured Plant response rating, Ryegrass, Italian values attached.
# Tested on: Italian ryegrass (Lolium multiflorum)
# experimentSummary: Test B pre-/postemergence plant response
# Assay type: in vivo
# conditionNotes: Preemergence, 125 g ai/ha; 0 to 100 scale where 0 is no effect and 100 is complete control

# smilesData, Plant response rating, Ryegrass, Italian
rows = [
    ("COc1cccc(Oc2ncc(Cl)cn2)c1-c1cc(C(F)F)on1", 10),
    ("Fc1ccc(Oc2ncc(Cl)cn2)c(-c2cc(C(F)F)on2)c1Cl", 0),
    ("Cn1nnc(-c2ccccc2Oc2ncc(Cl)cn2)n1", 40),
    ("COc1cccc(Oc2ncc(Cl)cn2)c1-c1cc(C(F)(F)F)on1", 20),
    ("FC(F)=Cc1cc(-c2c(F)cccc2Oc2ncc(Cl)cn2)no1", 0),
    ("CC(C)n1nc(C(F)(F)F)cc1-c1c(C#N)cccc1Oc1ncc(Cl)cn1", 0),
    ("Fc1cc(F)c(-c2cc(C(F)F)no2)c(Oc2ncc(Cl)cn2)c1", 0),
    ("FC(F)(F)c1cc(-c2ccccc2Oc2ncc(Cl)cn2)ncn1", 30),
    ("COc1cccc(Oc2ncc(Cl)cn2)c1-c1cc(C(F)(F)F)no1", 10),
    ("Cc1nnc(-c2ccccc2Oc2ncc(Cl)cn2)o1", 0),
    ("FC(F)c1cc(-c2ccccc2Oc2ncc(Cl)cn2)on1", 10),
    ("CCOC(OCC)c1cc(-c2ccccc2Oc2ncc(Cl)cn2)on1", 0),
]

---

# System: barnyardgrass (Echinochloa crus-galli)
# experimentSummary: Test B pre-/postemergence plant response
# Type: in vivo
# conditionNotes: Preemergence, 500 g ai/ha; 0 to 100 scale where 0 is no effect and 100 is complete control
Assign class by Plant response rating, Barnyardgrass: not lower than 30 means 1 (yes); lower than 30 means 0 (no).

# molecule, assignedCategory
rows = [
    ("N#Cc1cccc(Oc2ncc(Cl)cn2)c1-c1cc(C(F)(F)F)on1 [Compound 157]", "1 (yes)"),
    ("Clc1cnc(Oc2ccccc2-c2ccc(Br)s2)nc1 [Compound 181]", "0 (no)"),
    ("Cc1cc(-c2ccccc2Oc2ncc(Cl)cn2)no1 [Compound 153]", "1 (yes)"),
    ("FC(F)(F)c1cc(-c2c(Br)cccc2Oc2ncc(Cl)cn2)no1 [Compound 170]", "0 (no)"),
    ("FC(F)(F)c1ccc(-c2ccccc2Oc2ncc(Br)cn2)nc1 [Compound 28]", "1 (yes)"),
    ("Cc1ccc(Oc2ncc(Cl)cn2)c(-c2cccc(OC(F)(F)F)c2)c1 [Compound 44]", "0 (no)"),
    ("Cc1c(-c2ccccc2Oc2ncc(Cl)cn2)noc1C(F)(F)F [Compound 167]", "0 (no)"),
]
